// reported binding signal for each item listed
Biological target: SIX1 homeodomain (reference allele) (human, UniProt Q15475 108-198)
Sequence: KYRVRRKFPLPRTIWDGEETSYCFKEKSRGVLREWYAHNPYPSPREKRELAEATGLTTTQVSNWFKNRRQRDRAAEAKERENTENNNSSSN
Experiment: universal protein binding microarray; Universal all-10-mer PBM (8x60K, AMADID 030236), 300 nM GST-tagged protein, Alexa Fluor 488 anti-GST; buffer, salt, pH and temperature not stated (as in Berger); high values mean tight binding
Conditions: protein: ivt; tags: N-terminal GST; dsDNA, one strand shown
Whole data set: some 33,000 sequences, median “e-score” near -0.053, cut for the highest 2% near 0.38. Shown is part of a subset that was picked to be rich in the highest values.
Answer format: numeric, E-score implied, no suffix.

Example entries and their recorded answers appear below.
>  <residue string>
GTATGACA

>  <output unit>
E-score

>  <binding signal>
0.153

$$$$
>  <residue string>
ATCTCGAG

>  <output unit>
E-score

>  <binding signal>
0.215

$$$$
>  <residue string>
CGTCGATC

>  <output unit>
E-score

>  <binding signal>
0.157

$$$$
>  <residue string>
ATATGGTC

>  <output unit>
E-score

>  <binding signal>
0.277

$$$$

Query :: Need binding signal, item `ATATGATC`
Result :: 0.378

Query :: Item: `CACTAATA`
Result :: 0.215

Query :: Item: `ATATCAGC`
Result :: 0.404

---

Molecular target: SIX1 homeodomain (reference allele) (human, UniProt Q15475 108-198)
Sequence: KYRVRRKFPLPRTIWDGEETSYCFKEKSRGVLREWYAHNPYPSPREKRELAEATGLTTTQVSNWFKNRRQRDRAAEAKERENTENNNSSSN
Assay: universal protein binding microarray; Universal all-10-mer PBM (8x60K, AMADID 030236), 300 nM GST-tagged protein, Alexa Fluor 488 anti-GST; buffer, salt, pH and temperature not stated (as in Berger); high values mean tight binding
Details: protein: ivt; tags: N-terminal GST; dsDNA, one strand shown
Over roughly 33,000 sequences, “e-score” has its median near -0.053; the highest 2% begin near 0.38. Many of the other results were omitted from the sample, so the highest values are more common in it than they were.
just bin them by binding signal: lo = under 0.2 E-score, med = from 0.2 E-score up to 0.3 E-score, hi = 0.3 E-score and over

>  <residue string>
ATCGTACC

>  <cat>
med

$$$$
>  <residue string>
CCGGTAGA

>  <cat>
lo

$$$$
>  <residue string>
CCTATCCA

>  <cat>
med

$$$$
>  <residue string>
CTTGATAC

>  <cat>
hi

$$$$
>  <residue string>
ATCACTGG

>  <cat>
med

$$$$

Query :: Category of `ATCGAGAC` :
Result :: med

Query :: Item: `AACGTATC`
Result :: hi

Query :: Item: `ATCCATGC`
Result :: med

Query :: Item: `CTATAATC`
Result :: lo

Query :: Item: `CCGGACAC`
Result :: lo

Query :: Item: `ATAAGCAG`
Result :: lo

Query :: Item: `TACGTATA`
Result :: med

Query :: Item: `GGGAAACC`
Result :: lo

Query :: Item: `ATTGATAG`
Result :: med

Query :: Item: `CTTCGATA`
Result :: hi

Query :: Item: `GACGTATC`
Result :: hi

Query :: Item: `CTCTATCC`
Result :: med

Query :: Item: `CGAGACGA`
Result :: lo

Query :: Item: `ACATATAT`
Result :: med

Query :: Item: `CACTGATA`
Result :: hi
